measured target: UniProtKB P28845
experimental details: 11β-hsd-1 enzyme assay, Kiapp determination (3H-cortisone to cortisol, radio-HPLC)
Format: biochemical
setup conditions: apparent Ki, 11β-hsd-1 enzyme; read-out: Ki app
Lab note: anything with Ki below 10 nM is marked yes (1); values at 10 nM or higher are marked no (0).

>  <compound>
CCCCc1ccc(-c2ccc(S(=O)(=O)Nc3cccc(C)n3)c(C)c2)cc1 [Example 209]

>  <assigned label>
no (0)

$$$$
>  <compound>
Cc1cc(C)nc(NS(=O)(=O)N2CCc3ccccc3C2)c1 [Example 304]

>  <assigned label>
no (0)

$$$$
>  <compound>
Cc1cccc(NS(=O)(=O)c2ccc(-c3cc(F)ccc3F)cc2C)n1 [Example 202]

>  <assigned label>
no (0)

$$$$
>  <compound>
Cc1cccc(NS(=O)(=O)c2ccc(-c3ccc(F)c(Cl)c3)c(C)c2)n1 [Example 219]

>  <assigned label>
no (0)

$$$$
>  <compound>
N#Cc1ccc(-c2ccc(S(=O)(=O)Nc3ccc4ccccc4n3)cc2)nc1 [Example 288]

>  <assigned label>
no (0)

$$$$
>  <compound>
Cc1cccc(NS(=O)(=O)c2ccc(-c3ccc(Cl)cc3Cl)c(C)c2)n1 [Example 221]

>  <assigned label>
no (0)

$$$$
>  <compound>
Cc1cccc(NS(=O)(=O)c2ccc(-c3ccc(Cl)cc3)c(C)c2)n1 [Example 217]

>  <assigned label>
yes (1)

$$$$
>  <compound>
Cc1cccc(NS(=O)(=O)c2ccc(-c3ccc(S(C)(=O)=O)cc3)cc2C)n1 [Example 200]

>  <assigned label>
no (0)

$$$$
>  <compound>
COc1ccc(-c2ccc(S(=O)(=O)Nc3cccc(C)n3)cc2)cn1 [Example 256]

>  <assigned label>
no (0)

$$$$
>  <compound>
Cc1cccc(NS(=O)(=O)N2CCC(c3ccc(F)cc3)CC2)n1 [Example 301]

>  <assigned label>
yes (1)

$$$$
>  <compound>
Cc1cc(C)nc(NS(=O)(=O)N2CCC(c3ccc(C#N)cc3)CC2)c1 [Example 311]

>  <assigned label>
yes (1)

$$$$
>  <compound>
Cc1cccc(NS(=O)(=O)c2ccc(-c3cccc(Cl)c3)c(C)c2)n1 [Example 213]

>  <assigned label>
no (0)

$$$$

###

measured target: 11β-hsd-1 enzyme (Homo sapiens, UniProt P28845)
Sequence (P28845 whole entry, species assumed): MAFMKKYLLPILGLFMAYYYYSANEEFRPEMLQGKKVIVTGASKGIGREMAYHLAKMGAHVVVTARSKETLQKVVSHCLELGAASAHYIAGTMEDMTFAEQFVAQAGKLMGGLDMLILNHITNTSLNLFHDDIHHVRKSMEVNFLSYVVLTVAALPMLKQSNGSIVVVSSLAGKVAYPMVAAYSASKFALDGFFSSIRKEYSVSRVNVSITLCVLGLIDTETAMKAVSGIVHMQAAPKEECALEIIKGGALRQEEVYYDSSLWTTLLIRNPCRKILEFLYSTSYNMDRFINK
experimental details: 11β-hsd-1 enzyme assay, percentage of inhibition (3H-cortisone to cortisol, radio-HPLC)
Assay type: biochemical
setup conditions: 0.1 uM; read-out: % inh @ 0.1 uM
Quick rule: inhibition at 0.1 µM of at least 80% means Yes, below that means No.

>  <mol>
O=S(=O)(Nc1ccc2nc[nH]c2c1)c1ccc(-c2ccc(F)cc2)cc1

>  <assigned label>
No

$$$$
>  <mol>
Cc1cccc(NS(=O)(=O)c2ccc(-c3ccccc3F)cc2C)n1

>  <assigned label>
Yes

$$$$
>  <mol>
CN(C)Cc1cccc(NS(=O)(=O)c2ccc(-c3ccc(C#N)cc3)cc2)n1

>  <assigned label>
No

$$$$
>  <mol>
Cc1cccc(NS(=O)(=O)c2ccc(-c3cccc(COc4ccccc4)c3)cc2)n1

>  <assigned label>
Yes

$$$$
>  <mol>
COc1cccc(-c2ccc(S(=O)(=O)Nc3cccc(C)n3)c(C)c2)c1

>  <assigned label>
Yes

$$$$
>  <mol>
Cc1cccc(NS(=O)(=O)c2ccc(-c3ccc(F)cc3F)cc2)n1

>  <assigned label>
Yes

$$$$
>  <mol>
CCc1cccc(NS(=O)(=O)c2sc(-c3ccc(C#N)cc3)nc2C)n1

>  <assigned label>
Yes

$$$$
>  <mol>
CCOC(=O)Cc1cccc(NS(=O)(=O)c2ccc(C(F)(F)F)cc2)n1

>  <assigned label>
No

$$$$
>  <mol>
O=S(=O)(Nc1ccc2ccccc2n1)c1ccc(-c2ccc(F)cc2)cc1

>  <assigned label>
Yes

$$$$
>  <mol>
Cc1cccc(NS(=O)(=O)c2ccc(-c3ccccc3Cl)cc2)n1

>  <assigned label>
Yes

$$$$
>  <mol>
CCN(CC)C(=O)Cc1cccc(NS(=O)(=O)c2ccc3ccccc3c2)n1

>  <assigned label>
No

$$$$
>  <mol>
Cc1cccc(NS(=O)(=O)c2ccc(-c3cc(Cl)ccc3Cl)cc2)n1

>  <assigned label>
Yes

$$$$
>  <mol>
CCOC(=O)Cc1cccc(NS(=O)(=O)c2cccc(Cl)c2C)n1

>  <assigned label>
No

$$$$
>  <mol>
CCOc1cccc(-c2ccc(S(=O)(=O)Nc3cccc(C)n3)cc2)c1

>  <assigned label>
No

$$$$
>  <mol>
Cc1cccc(NS(=O)(=O)c2ccc(N3CCOCC3)nc2)n1

>  <assigned label>
No

$$$$
>  <mol>
Cc1cccc(NS(=O)(=O)c2ccc(-c3cc(Cl)cc(Cl)c3)cc2C)n1

>  <assigned label>
Yes

$$$$
>  <mol>
Cc1c(Cl)cccc1S(=O)(=O)Nc1cccc(N)n1

>  <assigned label>
Yes

$$$$
